- System: ECV-304
- test: Cytotoxic activity against ECV304 (human endothelial) cell line.
- Format: functional, cell-based
observable: IC50

For the molecule CC(C)[C@@H]1CC[C@]2(C(=O)O)CC[C@]3(C)C(CCC4[C@@]5(C)CCC(/N=C/c6ccc(F)c(F)c6)C(C)(C)C5CC[C@]43C)C12 (some centres not stated) , what IC50 is on record?
0.35 µg/mL

Item under review: COc1ccc(N/N=C2\CC[C@@]3(C)C(CC[C@]4(C)C3CCC3C5[C@H](C(C)C)CC[C@]5(C(=O)O)CC[C@]34C)C2(C)C)cc1 (some centres not stated) . Reported IC50?
< 4 µg/mL

IC50 lookup needed for CC(C)[C@@H]1CC[C@]2(C(=O)O)CC[C@]3(C)C(CCC4[C@@]5(C)CCC(/N=C/c6ccc(F)cc6F)C(C)(C)C5CC[C@]43C)C12 (some centres not stated) , thanks.
2.4 µg/mL

# IC50 lookup, item CC(C)[C@@H]1CC[C@]2(C(=O)O)CC[C@]3(C)C(CCC4[C@@]5(C)CC[C@H](O)C(C)(C)C5CC[C@]43C)C12 (some centres not stated) [DIHYDROBETULINIC ACID]
< 4 µg/mL

Recorded IC50 for CC(C)[C@@H]1CC[C@]2(C(=O)O)CC[C@]3(C)C(CCC4[C@@]5(C)CCC(N)C(C)(C)C5CC[C@]43C)C12 (some centres not stated) , please?
< 4 µg/mL

What IC50 value was documented for this molecule, CC(C)[C@@H]1CC[C@]2(C(=O)O)CC[C@]3(C)C(CCC4[C@@]5(C)CCC(NNc6ccccc6)C(C)(C)C5CC[C@]43C)C12 (some centres not stated) ?
0.5 µg/mL

Please give the measured IC50 for this molecule: C=C(C)[C@@H]1CC[C@]2(C(=O)O)CC[C@]3(C)C(CCC4[C@@]5(C)CC[C@H](OC(=O)Cc6cc(OC)ccc6OC)C(C)(C)C5CC[C@]43C)C12 (some centres not stated)
1.8 µg/mL

Origin of values: ChEMBL document CHEMBL1146641
